Data origin: PubChem BioAssay (NCI)

Tested on: MCF7 breast
TEST: NCI-60 one-dose screen, 48 h (100 = growth as untreated, 0 = no growth, -100 = all killed)
TEST PARAMETERS: 10 µM unless noted
This is part of a sample that, as a whole, favours compounds with a hit. Of some 83,000 tested, about 20% had one in any assay.

{"COMPOUND": "Cc1nn(-c2ccccc2)c(Cl)c1/C=C(/NC(=O)c1ccccc1)c1nc2ccccc2[nH]1", "growth, %": 93.1}
{"COMPOUND": "CCN(CC)CCN1C(=O)c2c(c(C)c3c(oc4cc(O)ccc43)c2C)C1=O", "growth, %": 3.63}
{"COMPOUND": "COc1ccc(NC(=O)CSc2nnc(-c3cc(-c4ccccc4)nc4ccccc34)n2-c2ccccc2)cc1", "growth, %": 89.1}
{"COMPOUND": "CCN1C(=O)N(CC)C2C1NN=c1s/c(=C\\c3cccs3)c(=O)n12 (stereo not given)", "growth, %": 19.9}
{"COMPOUND": "COc1ccc(-c2cc(-c3cc(OC)c(OC)c(OC)c3)c(C#N)c(N3CCOCC3)n2)cc1O", "growth, %": 36.2}
{"COMPOUND": "CCCc1cc2c(=O)c(C(=O)OC)c[nH]c2cc1N(CC)CC", "growth, %": 80.2}
{"COMPOUND": "C=C1C(=O)O[C@H]2[C@H]1CC/C(COC(=O)C(=O)c1c[nH]c3ccccc13)=C\\CC[C@@]1(C)O[C@@H]21", "growth, %": -16.9}
{"COMPOUND": "COc1cccc(-c2nn(-c3ccccc3)cc2-c2ccnc(NCCCNC(=O)c3cccc(C(F)(F)F)c3)c2)c1", "growth, %": 18.1}
{"COMPOUND": "O=c1c2cc(F)ccc2sc2c(Nc3cccnc3)nc3ccccc3c12", "growth, %": 55.1}
{"COMPOUND": "Cc1ccc2[nH]c(=O)c3c(c2c1)OC(N)=C(C#N)C31c2cc(Br)ccc2-c2ccc(Br)cc21", "growth, %": 34}
{"COMPOUND": "N#Cc1c(-c2ccccn2)[nH]c(=S)[nH]c1=O", "growth, %": 95.1}
{"COMPOUND": "COc1cc(C(=O)/C=C/c2c(-c3ccc(F)cc3)nc3sc(C)cn23)cc(OC)c1OC", "growth, %": 29.5}
{"COMPOUND": "O=C(/C=C/c1c(Cl)nc2sccn12)c1nccs1", "growth, %": 76.2}
{"COMPOUND": "COc1cccc(Nc2nccc(Nc3ccc4[nH]ncc4c3)n2)c1", "growth, %": -50.6}
{"COMPOUND": "O=C(Nc1ccc(-n2cc(-c3ccncc3)c(-c3ccc(Cl)c(O)c3)n2)cc1)N1CCOCC1", "growth, %": 101}
{"COMPOUND": "Cc1cc[c-]cc1.Fc1c[c-]c(-c2ccccn2)c(F)c1.[Pt+2].c1ccc(P(C[PH+](c2ccccc2)c2ccccc2)c2ccccc2)cc1", "growth, %": 6.01}
{"COMPOUND": "COc1ccc2oc3c(C)c4c(c(C)c3c2c1)C(=O)N(Cc1ccccc1)C4=O", "growth, %": 95.5}
{"COMPOUND": "Cc1cccc(-c2nc(N(C)c3ccc4ncsc4c3)c3ccccc3n2)n1", "growth, %": 45}
{"COMPOUND": "COc1cc(CCC[P+](c2ccccc2)(c2ccccc2)c2ccccc2)cc2c1OCO2", "growth, %": 18.2}
{"COMPOUND": "CC(CN1CCCCC1)C(=O)c1ccccc1 (stereo not given)", "growth, %": 91}
